meta.source: patent US20240309103A1

Target: T1, human NPR1 extracellular domain expressed with a C-terminal mouse IgG2a (hNPR1-mFc) (human)
T1 construct: also called hNPR1-Fc; human NPR1 dimer
T1 chain: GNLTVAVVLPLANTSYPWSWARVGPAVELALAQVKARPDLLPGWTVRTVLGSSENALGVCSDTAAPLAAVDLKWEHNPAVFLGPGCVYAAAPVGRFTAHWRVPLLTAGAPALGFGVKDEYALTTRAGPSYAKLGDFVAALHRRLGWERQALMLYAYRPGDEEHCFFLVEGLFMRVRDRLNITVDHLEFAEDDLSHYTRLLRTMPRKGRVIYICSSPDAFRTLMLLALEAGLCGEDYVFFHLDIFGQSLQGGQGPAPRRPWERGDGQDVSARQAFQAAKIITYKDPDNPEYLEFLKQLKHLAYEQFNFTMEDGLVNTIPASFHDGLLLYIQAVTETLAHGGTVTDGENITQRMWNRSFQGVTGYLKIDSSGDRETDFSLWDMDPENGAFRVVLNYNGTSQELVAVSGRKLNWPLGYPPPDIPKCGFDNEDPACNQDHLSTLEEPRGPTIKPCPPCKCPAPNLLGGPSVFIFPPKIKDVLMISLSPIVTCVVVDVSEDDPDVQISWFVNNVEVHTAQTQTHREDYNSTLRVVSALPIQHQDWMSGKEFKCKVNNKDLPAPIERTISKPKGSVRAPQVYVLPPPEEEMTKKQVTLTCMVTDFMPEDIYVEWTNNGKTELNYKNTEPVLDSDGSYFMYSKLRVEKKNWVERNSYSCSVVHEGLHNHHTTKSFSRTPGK
Assay: SPR, mAb captured, 25 C
measure-name: kon (M⁻¹ s⁻¹)
Give just the number in M⁻¹ s⁻¹; leave the unit off.

Reference set, count: 2
>  <binder>
mAb22035 (antibody, V domains shown) VH: EVQLVESGGGLVQPGRSLRLSCAASGFTFDDYAMHWVRQAPGKGLEWVSGISWNSGTIGYADSVKGRFTMSRDNAKNSLYLQMNSLRPEDTALYYCAKDMGVSLALWGAFDIWGQGTMVTVSS VL: DIQMTQSPSSLSASVGDKVTITCRASQNIRTYLNWYQQKPGKAPKVLISTASSLQSGVPSRFSGSGSGTDFTLTISSLQPEDFAVFYCQQSFGIPRTFGQGTKVEIK

>  <uom>
M⁻¹ s⁻¹

>  <kon>
225000

$$$$
>  <binder>
mAb25479 (antibody, V domains shown) VH: QVQLVQSGAEVKKPGASVKVSCKASGYTFTGYYIHWVRQAPGQGLEWMGWINPNSIGTNYAQKFQGRVTLTRDTSISTAYMELSSLRSDDTAVYYCARGGSSSYYYYYYGMDVWGQGTTVTVSS VL: DIQMTQSPSSLSASVGDRVTITCRASQSIDNYLNWYQQKPGKAPKLLIYVASSLQSGVPSRFSGSGSGTDFTLTISSLQPEDFATYYCQQSYSTPLTFGGGTKVEIK

>  <uom>
M⁻¹ s⁻¹

>  <kon>
38000

$$$$

Next up:
Prompt: Query (binder): mAb25508 (antibody, V domains shown) VH: EVQLVESGGGVVRPGGSLRLSCAASGFNVDDYGMSWVRQIPGKGLEWISGINWNGGRIYYADSMKGRITISRDNAKNSLYLQMNSLRAEDTALYHCVRDQWLVRGLDYWGQGTLVTVSS VL: DIQMTQSPSSLSASVGDRVTITCRASQGIYNYLAWFQQKPGKAPKSLIYAASSLQSGVPSKFSGSGSGTDFTLTISSLQPEDFATYYCQQYNTYPYTFGQGTKLEIK ; field requested: kon
Response: 789000
